# PROCEDURE TEXT: Selectivity for human BuChe over electric eel AChE type 6S
Items are presented alongside their recorded Ratio.

# STRUCTURE SMILES STRING, READOUT NAME, RESULT
rows = [
    ("O=C(O[C@@H]1CO[C@H]2[C@@H]1OC[C@@H]2OC(=O)N1CCOCC1)c1ccccc1O", "Ratio", "> 95"),
    ("O=C(NCc1ccccc1)O[C@H]1CO[C@H]2[C@@H]1OC[C@H]2OC(=O)c1cccc(O)c1", "Ratio", "> 6250"),
    ("Nc1ccc(C(=O)O[C@@H]2CO[C@H]3[C@@H]2OC[C@@H]3OC(=O)NCc2ccccc2)cc1", "Ratio", 336),
    ("O=Nc1ccccc1C(=O)O[C@@H]1CO[C@H]2[C@@H]1OC[C@@H]2OC(=O)NCc1ccccc1", "Ratio", "> 2560"),
    ("Cc1ccccc1C(=O)O[C@@H]1CO[C@H]2[C@@H]1OC[C@@H]2OC(=O)NCc1ccccc1", "Ratio", "> 83300"),
]

For "CN(C)C(=O)O[C@H]1CO[C@H]2[C@@H]1OC[C@H]2OC(=O)c1ccccc1O" , write its Ratio. > 15600

Check the records and state Ratio for "O=C(NCc1ccccc1)O[C@H]1CO[C@H]2[C@@H]1OC[C@H]2OC(=O)c1ccccc1[N+](=O)[O-]" > 5560

Return the recorded Ratio value; entry: "CCNC(=O)O[C@H]1CO[C@H]2[C@@H]1OC[C@H]2OC(=O)c1ccccc1O" > 10400

Note Ratio for the compound shown: "O=C(NCc1ccccc1)O[C@H]1CO[C@H]2[C@@H]1OC[C@H]2OC(=O)c1cccc([N+](=O)[O-])c1" > 3120

Hello, please tell me recorded Ratio for this one: "O=C(NCc1ccccc1)O[C@H]1CO[C@H]2[C@@H]1OC[C@H]2OC(=O)c1ccc(O)cc1" > 309

Please report the measured Ratio for "CCN(CC)C(=O)O[C@H]1CO[C@H]2[C@@H]1OC[C@H]2OC(=O)c1ccccc1O" > 38
